meta.source: a melting point compilation (Tetko et al.; mined from patent text by program, amines drawn as free bases though some values may be those of a salt)

// reported melting point per item
Measurement Type: melting point

COCc1cc2c(-c3ccc(C(F)(F)F)n(C)c3=O)c(F)cc(Cl)c2o1    136 to 137 °C
COC(=NS(=O)(=O)c1nc(-c2ccccc2C)ns1)C(C)C    116 to 118 °C
CCOc1cc(/C(=C\C#N)c2ccc(NC(=O)OC)c(OC)c2)ccc1OC    148 to 149 °C
O=C(O)CCCc1cc2nc(Cl)ccc2n1S(=O)(=O)c1ccc(-c2cnco2)cc1    169 to 176 °C
CC(=Cc1ccsc1Cl)[N+](=O)[O-]    73 to 76 °C
S=C1NCSc2ccsc21    136 to 138 °C
CSc1ccccc1CNC(=O)c1ccc2cnccc2n1    102 to 103 °C
CN(Sc1ccc(C(C)(C)C)cc1)C(=O)Oc1cccc2c1OC(C)(C)C2    120 to 123 °C
O=C(O)c1ccc(=O)n(-c2ccccc2)c1    115 to 120 °C
COC(=O)Cc1n[nH]c2ccccc12    146 °C
O=C(NC1CCSC2COCC(C(=O)O)N2C1=O)C(S)Cc1ccccc1 (stereo unspecified)    224 to 226 °C
